From: patent US10195156B2

- experimentNotes: Encapsulation efficiency of RNA (QUANT-IT RIBOGREEN RNA assay)
- Assay type: physicochemical
- conditionDetails: Table 1; rows without footnote mark
- Description: For nanoparticle compositions including an RNA, a QUANT-IT™ RIBOGREEN® RNA assay (Invitrogen Corporation Carlsbad, Calif.) can be used to evaluate the encapsulation of an RNA by the nanoparticle composition. […] The fluorescence intensity can be measured using a fluorescence plate reader (Wallac Victor 1420 Multilablel Counter; Perkin Elmer, Waltham, Mass.) at an excitation wavelength of, for example, about 480 nm and an emission wavelength of, for example, about 520 nm. […]
readout: EE (%)

In the examples that follow, each entry is paired with its recorded EE (%).
- compound: "CCCCCCCCCN(CCCCCCCCC)CCN(CCCCCCCCC)CCN1CCN(CCN(CCCCCCCCC)CCCCCCCCC)CC1"
  measuredValue: 98.4
- compound: "CCCCCCCCCCCCN(CCN(CCCCCCCCC)CCCCCCCCC)CC(=O)N1CCN(C(=O)CN(CCCCCCCCC)CCCCCCCCC)CC1"
  measuredValue: 98.1

A: CCCCCCCCCN(CCCCCCCCC)CCN(CCCCCCCCC)CCC1CCN(C(=O)CN(CCCCCCCCC)CCCCCCCCC)CC1
B: CCCCCCCCCCCCN(CCCCCCCCCCCC)CCN1CCN(CCN(CCCCCCCCCCCC)C(=O)CN(CCCCCCCCCCCC)CCCCCCCCCCCC)CC1
Incoming: Compare A and B by numeric EE (%) and name the larger one. Answer by stating the label of the chosen item.
Outgoing: A

I: CCCCCCCCCN(CCCCCCCCC)CCN(CCCCCCCCC)CC(=O)N1CCN(C(=O)CN(CCCCCCCCC)CCCCCCCCC)CC1
II: CCCCC/C=C\C/C=C\CCCCCCCCN(CCCCCCCC/C=C\C/C=C\CCCCC)CCN1CCN(CCN(CCCCCCCCCCCC)CCN(CCCCCCCCCCCC)CCCCCCCCCCCC)CC1
Incoming: Looking at I and II , which one comes out lower in EE (%) terms? Answer by stating the label of the chosen item.
Outgoing: II
